- Tgt: MAP3K5 (human)
- Experimental protocol: radiometric filter-binding kinase assay, Kinase HotSpot
- Measurement parameters: compound 0.5 µM; ATP 10 µM
Examples of compounds with documented residual activity follow.
Experimental endpoint: residual activity (%)

- Nc1nc(Nc2ccc(S(N)(=O)=O)cc2)nn1C(=S)Nc1c(F)cccc1F: 1.12
- Cc1ccc(NC(=O)c2ccc(CN3CCN(C)CC3)cc2)cc1Nc1nc(-c2cccnc2)cs1: 95
- Clc1ccc(Nc2nnc(Cc3ccncc3)c3ccccc23)cc1: 101
- NC(=O)c1ccc(N(C(N)=O)c2c(F)cccc2F)nc1-c1ccc(F)cc1F: 102
- O=c1cc(N2CCNCC2)oc2c(-c3ccccc3)cccc12: 106
- CS(=O)c1ccc(-c2nc(-c3ccc(F)cc3)c(-c3ccncc3)[nH]2)cc1 (configuration not stated): 107
- O=c1cc(-c2cccc3c2Sc2ccccc2S3)oc(N2CCOCC2)c1: 104
- Nc1n[nH]c2nnc(-c3c(-c4ccccc4)nn4ccccc34)cc12: 99.3
- O=C(NC(NC(=S)Nc1ccc(F)c([N+](=O)[O-])c1)C(Cl)(Cl)Cl)C(c1ccccc1)c1ccccc1 (configuration not stated): 97.1
- C#Cc1cccc(Nc2ncnc3cc(OCCOC)c(OCCOC)cc23)c1: 102
- O=C1Nc2cc(Br)ccc2/C1=C1/Nc2ccccc2/C1=N\O: 91.6
- COc1cc2nccc(Oc3ccc(NC(=S)NC(=O)c4ccccc4C)cc3)c2cc1OC: 106
- CSc1nc(-c2ccc(F)cc2)c(-c2ccnc(NC(C)c3ccccc3)c2)[nH]1 (configuration not stated): 106
- Nc1nc(Nc2ccc(S(N)(=O)=O)cc2)nn1C(=O)c1c(F)cccc1F: 103
- O=C1Cc2c([nH]c3ccc([N+](=O)[O-])cc23)-c2ccccc2N1: 101
- CCCNC(=O)Nc1ccc(Oc2ncnc3cc(OC)c(OC)cc23)cc1Cl: 102
- COc1cc2ncnc(Nc3ccc(F)c(Cl)c3)c2cc1OCCCN1CCOCC1: 103
- CC(C)(C)c1nc2c3ccc(F)cc3c3c(=O)[nH]ccc3c2[nH]1: 84.4
- CC(C)[C@H](CO)Nc1nc(Nc2cccc(Cl)c2)c2ncn(C(C)C)c2n1: 108
- O=C1Nc2ccccc2/C1=C\c1c(Cl)[nH]c2ccccc12: 107
- CCN1/C(=C/C(C)=O)Sc2ccc(OC)cc21: 118
- COc1ccc(-c2cnc3c(-c4ccsc4)cnn3c2)cc1: 105

----------
- Tgt: UniProt:Q16288
- Sequence (Q16288 whole entry, looked up): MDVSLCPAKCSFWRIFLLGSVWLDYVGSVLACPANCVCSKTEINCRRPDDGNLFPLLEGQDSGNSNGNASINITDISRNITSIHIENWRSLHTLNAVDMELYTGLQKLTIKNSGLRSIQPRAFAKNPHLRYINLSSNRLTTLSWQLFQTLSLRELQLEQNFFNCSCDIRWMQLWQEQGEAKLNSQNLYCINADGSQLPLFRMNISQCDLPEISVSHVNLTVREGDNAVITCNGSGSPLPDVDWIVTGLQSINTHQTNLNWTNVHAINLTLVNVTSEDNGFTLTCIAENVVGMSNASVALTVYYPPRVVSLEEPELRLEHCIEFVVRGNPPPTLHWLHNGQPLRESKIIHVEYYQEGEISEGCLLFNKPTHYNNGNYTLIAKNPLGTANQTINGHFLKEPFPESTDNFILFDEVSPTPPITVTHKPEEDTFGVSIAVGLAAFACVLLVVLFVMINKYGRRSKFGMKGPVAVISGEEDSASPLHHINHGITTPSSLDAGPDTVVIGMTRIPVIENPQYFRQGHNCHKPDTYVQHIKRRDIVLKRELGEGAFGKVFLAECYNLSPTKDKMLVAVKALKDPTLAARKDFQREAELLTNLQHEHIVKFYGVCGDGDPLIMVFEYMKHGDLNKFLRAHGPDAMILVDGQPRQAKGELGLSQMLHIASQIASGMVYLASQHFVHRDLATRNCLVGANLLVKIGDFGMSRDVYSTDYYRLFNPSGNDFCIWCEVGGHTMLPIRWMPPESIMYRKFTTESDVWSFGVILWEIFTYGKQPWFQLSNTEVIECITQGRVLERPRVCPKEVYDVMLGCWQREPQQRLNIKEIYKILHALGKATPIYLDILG
- Experimental protocol: radiometric filter-binding kinase assay, Kinase HotSpot
- Measurement parameters: compound 0.5 µM; ATP 10 µM
Hi, to clarify the labels: 1.0 covers residual activity from 90% upward, 0.0 covers anything below 90%.

* O=c1cc(N2CCNCC2)oc2c(-c3ccccc3)cccc12 | 1.0
* O=c1cc(-c2cccc3c2Sc2ccccc2S3)oc(N2CCOCC2)c1 | 1.0
* O=C1Nc2cc(Br)ccc2/C1=C1/Nc2ccccc2/C1=N\O | 0.0
* Clc1ccc(Nc2nnc(Cc3ccncc3)c3ccccc23)cc1 | 1.0
* NC(=O)c1ccc(N(C(N)=O)c2c(F)cccc2F)nc1-c1ccc(F)cc1F | 1.0
* O=C1Cc2c([nH]c3ccc([N+](=O)[O-])cc23)-c2ccccc2N1 | 0.0
* CS(=O)c1ccc(-c2nc(-c3ccc(F)cc3)c(-c3ccncc3)[nH]2)cc1 (stereo unspecified) | 1.0
* O=C1Nc2ccccc2/C1=C\c1c(Cl)[nH]c2ccccc12 | 1.0
* CC(C)(C)c1nc2c3ccc(F)cc3c3c(=O)[nH]ccc3c2[nH]1 | 0.0
* O=C(NC(NC(=S)Nc1ccc(F)c([N+](=O)[O-])c1)C(Cl)(Cl)Cl)C(c1ccccc1)c1ccccc1 (stereo unspecified) | 1.0
* CC(C)n1cnc2c(Nc3cccc(Cl)c3)nc(NCCO)nc21 | 0.0
* Oc1ccc(-c2nc(-c3ccc(F)cc3)c(-c3ccncc3)[nH]2)cc1 | 1.0
* C#Cc1cccc(Nc2ncnc3cc(OCCOC)c(OCCOC)cc23)c1 | 1.0
* COc1cc2ncnc(Nc3ccc(F)c(Cl)c3)c2cc1OCCCN1CCOCC1 | 1.0
* CSc1nc(-c2ccc(F)cc2)c(-c2ccnc(NC(C)c3ccccc3)c2)[nH]1 (stereo unspecified) | 1.0
* COc1ccc(-c2cnc3c(-c4ccsc4)cnn3c2)cc1 | 0.0
* COc1cc2nccc(Oc3ccc(NC(=S)NC(=O)c4ccccc4C)cc3)c2cc1OC | 0.0
* CC(C)[C@H](CO)Nc1nc(Nc2cccc(Cl)c2)c2ncn(C(C)C)c2n1 | 0.0
* Cc1ccc(NC(=O)c2ccc(CN3CCN(C)CC3)cc2)cc1Nc1nc(-c2cccnc2)cs1 | 1.0
* Nc1nc(Nc2ccc(S(N)(=O)=O)cc2)nn1C(=S)Nc1c(F)cccc1F | 0.0
* O=C(Nc1ccc(Cl)cc1)c1ccccc1NCc1ccncc1 | 1.0
* Nc1n[nH]c2nnc(-c3c(-c4ccccc4)nn4ccccc34)cc12 | 0.0
* Nc1nc(Nc2ccc(S(N)(=O)=O)cc2)nn1C(=O)c1c(F)cccc1F | 0.0
